Molecular target: T1, human IL4Rα/Fc (R and D Systems 604-4R) (human, UniProt P24394 26-231, limits assumed, biotin labelled in the assay of Example 5)
T1 construct: bought protein; also called IL-4Rα/Fc (R&D systems Cat. No. 604-4R-050); not shown: Fc part of the bought fusion
T1 sequence (looked up): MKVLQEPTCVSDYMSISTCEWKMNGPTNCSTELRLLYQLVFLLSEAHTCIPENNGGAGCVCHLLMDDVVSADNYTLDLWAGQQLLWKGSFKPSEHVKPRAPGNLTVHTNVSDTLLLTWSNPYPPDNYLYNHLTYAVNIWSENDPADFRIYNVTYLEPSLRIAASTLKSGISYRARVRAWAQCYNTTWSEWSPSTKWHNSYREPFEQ
Assay: HTRF receptor-ligand assay, purified scFv against biotinylated human IL4
quantity: pKi
The value called pKi is obtained by taking minus log10 of the concentration in mol/L.

Please review the entries below; each comes with its answer.
[
  {
    "binder": "Antibody 30 scFv (scFv, V domains shown, tested as purified scFv) VH: QVQLVQSGAEVKKPGASVKVSCKASGYAFTSYYMHWARQAPGQGLEWMGIINPSGGSTSYAQKFQGRVTMTRDTSTSTVYMELSSLRSEDTAVYYCARGKYWMYDWGKGTLVTVSS VL: QSVLTQPPSVSAAPGQKVTISCSGGSSNIGNSYVSWYQRLPGAAPKLLIYDNNKRPSGIPDRFSGSKSGTSATLAITGLQTGDEADYYCGTWDTSTVWEWPFGTGTKLTVL",
    "value": 10.16
  },
  {
    "binder": "Antibody 3 scFv (scFv, V domains shown, tested as purified scFv) VH: QVQLVQSGAEVKKPGASVKVSCKASGYAFTSYYMHWARQAPGQGLEWMGIINPSGGSTSYAQKFQGRVTMTRDTSTSTVYMELSSLRSEDTAVYYCARGKLLKNPWGKGTLVTVSS VL: QSVLTQPPSVSAAPGQKVTISCSGGSSNIGNSYVSWYQQLPGTAPKLLIYDNNKRPSGIPDRFSGSKSGTSATLAITGLQTGDEADYYCGTWFGTPASNYVFGTGTKLTVL",
    "value": 9.30
  }
]

Now for a further binder.
input: What value of pKi has been recorded for this entry: Antibody 16 scFv (scFv, V domains shown, tested as purified scFv) VH: QVQLVQSGAEVKKPGASVKVSCKASGYAFTSYYMHWARQAPGQGLEWMGIINPSGGSTSYAQKFQGRVTMTRDTSTSTVYMELSSLRSEDTAVYYCARGKWWLYNWGKGTLVTVSS VL: QSVLTQPPSVSAAPGQKVTISCSGGSSNIGNSYVSWYQQLPGTAPKLLIYDNNKRPSGIPDRFSGSKSGTSATLAITGLQTGDEADYYCGTWDTSTTYHPIFGTGTKLTVL
output: 9.40
